Molecular target: wildtype LRRK2 (Homo sapiens)
Construct: expressed in transfected cells; host or cells: HEK293 (ATCC CRL-1573), transient transfection, mammalian expression vector with ubiquitin promoter
Sequence (Q5S007 whole entry): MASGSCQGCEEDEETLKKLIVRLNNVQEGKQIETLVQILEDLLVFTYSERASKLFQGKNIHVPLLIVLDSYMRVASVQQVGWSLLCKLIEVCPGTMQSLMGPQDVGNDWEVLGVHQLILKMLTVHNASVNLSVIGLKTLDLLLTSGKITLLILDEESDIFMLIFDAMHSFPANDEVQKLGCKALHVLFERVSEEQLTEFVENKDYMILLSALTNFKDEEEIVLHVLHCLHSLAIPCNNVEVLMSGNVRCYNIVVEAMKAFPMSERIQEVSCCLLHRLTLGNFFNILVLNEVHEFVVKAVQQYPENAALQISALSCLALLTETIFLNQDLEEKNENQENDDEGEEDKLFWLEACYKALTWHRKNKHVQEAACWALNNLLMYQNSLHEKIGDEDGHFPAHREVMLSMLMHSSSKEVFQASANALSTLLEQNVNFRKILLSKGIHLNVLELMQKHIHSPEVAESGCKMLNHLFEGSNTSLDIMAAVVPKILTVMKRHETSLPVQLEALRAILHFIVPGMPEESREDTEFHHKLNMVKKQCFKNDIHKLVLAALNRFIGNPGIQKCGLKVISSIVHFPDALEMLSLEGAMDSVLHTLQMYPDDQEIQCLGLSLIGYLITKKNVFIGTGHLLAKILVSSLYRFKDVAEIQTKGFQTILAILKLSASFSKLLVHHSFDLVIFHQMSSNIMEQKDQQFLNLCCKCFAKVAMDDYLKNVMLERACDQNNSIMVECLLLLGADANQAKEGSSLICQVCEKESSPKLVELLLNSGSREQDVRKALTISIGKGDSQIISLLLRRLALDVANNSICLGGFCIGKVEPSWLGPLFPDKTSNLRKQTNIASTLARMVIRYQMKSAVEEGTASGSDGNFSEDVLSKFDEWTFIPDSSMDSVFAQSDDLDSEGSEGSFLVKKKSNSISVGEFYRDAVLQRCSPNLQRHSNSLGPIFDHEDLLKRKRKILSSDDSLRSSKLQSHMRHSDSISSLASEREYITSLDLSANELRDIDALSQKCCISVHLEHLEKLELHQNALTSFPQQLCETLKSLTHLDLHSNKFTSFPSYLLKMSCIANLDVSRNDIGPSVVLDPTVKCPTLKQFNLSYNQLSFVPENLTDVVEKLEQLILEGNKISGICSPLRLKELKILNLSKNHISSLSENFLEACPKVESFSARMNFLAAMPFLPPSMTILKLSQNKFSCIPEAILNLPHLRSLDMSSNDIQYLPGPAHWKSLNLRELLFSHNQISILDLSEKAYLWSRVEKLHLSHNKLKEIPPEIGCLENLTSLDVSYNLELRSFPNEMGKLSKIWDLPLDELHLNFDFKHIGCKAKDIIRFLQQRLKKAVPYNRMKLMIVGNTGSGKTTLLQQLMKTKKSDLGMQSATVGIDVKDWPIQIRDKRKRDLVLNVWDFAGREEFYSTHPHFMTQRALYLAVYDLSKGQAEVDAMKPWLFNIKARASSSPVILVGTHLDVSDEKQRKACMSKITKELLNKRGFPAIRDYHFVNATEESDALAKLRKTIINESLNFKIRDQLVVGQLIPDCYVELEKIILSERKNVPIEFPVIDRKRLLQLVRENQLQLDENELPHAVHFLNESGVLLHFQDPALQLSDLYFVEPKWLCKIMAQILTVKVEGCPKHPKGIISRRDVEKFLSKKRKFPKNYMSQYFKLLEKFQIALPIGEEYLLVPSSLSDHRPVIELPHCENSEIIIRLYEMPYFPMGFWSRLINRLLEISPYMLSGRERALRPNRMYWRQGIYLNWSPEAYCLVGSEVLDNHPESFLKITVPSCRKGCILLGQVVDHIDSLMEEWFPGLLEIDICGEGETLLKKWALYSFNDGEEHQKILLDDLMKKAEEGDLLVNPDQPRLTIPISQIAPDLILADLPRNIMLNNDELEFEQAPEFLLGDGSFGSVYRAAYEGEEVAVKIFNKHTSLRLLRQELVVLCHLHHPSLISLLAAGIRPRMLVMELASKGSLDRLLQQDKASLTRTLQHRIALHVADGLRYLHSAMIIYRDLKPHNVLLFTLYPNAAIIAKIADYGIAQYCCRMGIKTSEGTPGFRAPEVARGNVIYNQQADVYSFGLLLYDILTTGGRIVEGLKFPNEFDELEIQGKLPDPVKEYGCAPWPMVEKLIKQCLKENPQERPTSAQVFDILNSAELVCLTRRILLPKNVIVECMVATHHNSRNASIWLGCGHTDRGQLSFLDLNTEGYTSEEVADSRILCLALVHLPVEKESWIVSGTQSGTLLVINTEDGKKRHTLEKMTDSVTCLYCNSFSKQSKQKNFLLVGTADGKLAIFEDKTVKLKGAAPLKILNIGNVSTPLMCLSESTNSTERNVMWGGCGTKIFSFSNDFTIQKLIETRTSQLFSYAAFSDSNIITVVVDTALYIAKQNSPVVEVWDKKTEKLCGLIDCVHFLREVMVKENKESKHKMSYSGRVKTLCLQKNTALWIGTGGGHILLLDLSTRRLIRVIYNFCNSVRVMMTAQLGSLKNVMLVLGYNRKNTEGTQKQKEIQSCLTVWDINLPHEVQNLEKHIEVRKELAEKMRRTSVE
Test: LRRK2 degradation assay, HiBit-tagged wildtype LRRK2 expressed from plasmid in HEK293 cells (Nano-Glo Dual-Luciferase)
Assay type: cell-based
Conditions: HiBit-tagged wildtype LRRK2, HEK293 cells, 24 hours; read-out: *WT DC50
Catalogue of compounds with associated DC50
metric.name: DC50

# compound, metric.name, result
measured = [
    ("CC1(Oc2ccc3[nH]nc(-c4ccnc(N5CC6(CN(CC7CCN(CC8CCN(c9ccc%10c(c9)C(=O)N(C9CCC(=O)NC9=O)C%10=O)CC8)CC7)C6)C5)c4)c3c2)CC1 (stereo not drawn)", "DC50", "10 to 50 nM"),
    ("CC1(Oc2ccc3n[nH]c(-c4cc(N5CCC(Cc6ccc(CC7CCN(c8ccc9c(c8)C(=O)N(C8CCC(=O)NC8=O)C9=O)CC7)cc6)CC5)ncn4)c3c2)CC1 (stereo not drawn)", "DC50", "≥ 100 nM"),
    ("CC1(Oc2ccc3[nH]nc(-c4cc(N5CC[C@H](CN6CCN(CC7CCN(c8ccc9c(c8)C(=O)N(C8CCC(=O)NC8=O)C9=O)CC7)CC6)C5)ncn4)c3c2)CC1 (stereo partly drawn)", "DC50", "< 10 nM"),
]
